# key: entry, value: pIC50
assayTarget: NLRP3 (Homo sapiens, UniProt Q96P20)
Sequence (Q96P20 whole entry): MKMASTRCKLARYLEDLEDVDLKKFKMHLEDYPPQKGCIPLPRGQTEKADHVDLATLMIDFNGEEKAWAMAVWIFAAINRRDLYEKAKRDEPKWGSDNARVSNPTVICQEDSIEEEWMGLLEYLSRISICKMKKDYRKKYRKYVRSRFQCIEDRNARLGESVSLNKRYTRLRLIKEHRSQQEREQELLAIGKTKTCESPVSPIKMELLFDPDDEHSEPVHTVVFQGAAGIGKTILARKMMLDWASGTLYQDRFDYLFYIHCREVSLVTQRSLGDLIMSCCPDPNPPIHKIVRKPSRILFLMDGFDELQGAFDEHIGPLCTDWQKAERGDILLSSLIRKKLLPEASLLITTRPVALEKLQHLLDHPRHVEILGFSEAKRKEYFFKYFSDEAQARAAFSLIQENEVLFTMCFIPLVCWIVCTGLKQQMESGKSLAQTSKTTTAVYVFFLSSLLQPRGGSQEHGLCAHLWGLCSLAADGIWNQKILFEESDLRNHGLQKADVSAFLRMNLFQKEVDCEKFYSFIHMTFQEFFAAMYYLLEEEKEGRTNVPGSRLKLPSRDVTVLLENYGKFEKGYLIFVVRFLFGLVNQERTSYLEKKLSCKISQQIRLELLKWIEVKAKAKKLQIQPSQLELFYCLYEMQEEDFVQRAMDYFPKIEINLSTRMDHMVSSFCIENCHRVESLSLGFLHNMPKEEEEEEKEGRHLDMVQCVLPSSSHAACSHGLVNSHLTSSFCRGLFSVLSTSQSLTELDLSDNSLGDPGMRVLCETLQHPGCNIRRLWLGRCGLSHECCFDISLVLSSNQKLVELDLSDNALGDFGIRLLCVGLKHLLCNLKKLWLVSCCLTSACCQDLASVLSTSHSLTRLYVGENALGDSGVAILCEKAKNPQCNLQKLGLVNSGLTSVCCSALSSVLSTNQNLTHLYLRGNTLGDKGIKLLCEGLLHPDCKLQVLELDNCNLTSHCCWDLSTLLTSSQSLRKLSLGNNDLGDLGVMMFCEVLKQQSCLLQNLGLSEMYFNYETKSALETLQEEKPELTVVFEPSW
measurementNotes: Human whole blood IL1β release assay (LPS + nigericin, AlphaLisa IL-1β; HWB IC50)
Format: cell-based
Parameters: Human whole blood in Li-heparin tubes was obtained from healthy donors from a volunteer donor panel; from tissue; host or cells: human whole blood from healthy donors
assayContext: IL-1β release
pIC50: −log10 of the molar value. Where a name gives a salt, the structure may show the parent alone.

Worked examples follow.
CC(C)c1cc(F)cc(-c2cccnc2)c1NC(=O)NS(=O)(=O)c1cc(C(=O)N(C)C)n(C)n1 [Example 33, sodium salt]: ≥ 6.30
COc1cc(-c2ccc3c(c2NC(=O)NS(=O)(=O)c2ccn(C(C)(C)C#N)n2)CCO3)ccn1: ≥ 6.30
N#Cc1cc(-c2ccc3c(c2NC(=O)NS(=O)(=O)c2ccn(CC4CC4)n2)CCC3)ccn1: ≥ 6.30
COc1cc(-c2ccc3c(c2NC(=O)NS(=O)(=O)c2ccn(C(C)(C)CN4CCC4)n2)CCO3)ccn1 [Example 258, sodium salt]: ≥ 6.30
CN1CCC(N(C)S(=O)(=O)NC(=O)Nc2c(-c3ccnc(C#N)c3)ccc3c2CCC3)C1 (stereo not shown): ≥ 6.30

Next up:
Value sought: pIC50, system NLRP3 (Homo sapiens, UniProt Q96P20), item CC(C)c1cc(F)cc(-c2cccnc2)c1NC(=O)NS(=O)(=O)c1cc(CN(C)C)n(C)n1 . Result: ≥ 6.30

---

assayTarget: UniProt Q96P20
measurementNotes: THP-1 cells pyroptosis assay (LPS + nigericin, resazurin readout; THP IC50)
Type: cell-based
Design: Seed THP-1 cells (25,000 cells/well) containing 1.0 μg/ml LPS in 40 μl of RPMI medium; host or cells: THP-1 cells
Where a name gives a salt, the structure may show the parent alone.
valueKind: IC50

Examples from the recorded data:
CC(C)c1cc(F)cc(-c2cccnc2)c1NC(=O)NS(=O)(=O)c1ccn(C(C)C)n1 [Example 1]: ≤ 500 nM
COc1cc(-c2ccc3c(c2NC(=O)NS(=O)(=O)c2cncc(N(C)C)n2)CCC3)ccn1 [Example 104]: ≤ 500 nM

Just so you know, measured IC50 for COc1cc(-c2ccc3c(c2NC(=O)NS(=O)(=O)c2ccn(C(C)(C)C#N)n2)CCC3)ccn1 [Example 201, sodium salt] came out at ≤ 500 nM

---

assayTarget: NLRP3 (Homo sapiens, UniProt Q96P20)
measurementNotes: THP-1 cells pyroptosis assay (LPS + nigericin, resazurin readout; THP IC50)
Type: cell-based
Set-up: Seed THP-1 cells (25,000 cells/well) containing 1.0 μg/ml LPS in 40 μl of RPMI medium; host or cells: THP-1 cells
pIC50: −log10 of the molar value. Structures can show the parent of a compound that is named as a salt.
Measured pIC50, listed per entry for reference.

COc1cc(-c2cc(F)c3c(c2NC(=O)NS(=O)(=O)c2ccn(CCN(C)C)n2)CCC3)ccn1 [Example 63]: ≥ 6.30
CCN(CC)CCCS(=O)(=O)NC(=O)Nc1c(-c2ccnc(C#N)c2)cc(F)cc1C(C)C [Example 146]: ≥ 6.00
COc1cc(-c2ccc3c(c2NC(=O)NS(=O)(=O)OC2CCN(C)C2)CCC3)ccn1 (stereo not drawn) [Example 284]: ≥ 6.30

For this compound ( COc1cc(-c2ccc3c(c2NC(=O)NS(=O)(=O)c2ccn(CC4CC4)n2)CCO3)ccn1 [Example 267, sodium salt] ), measured pIC50 is ≥ 6.30

What the record says about CC(C)c1cc(F)cc(-c2cncnc2)c1NC(=O)NS(=O)(=O)c1ccn(C(C)C)n1 [Example 18] : pIC50 is ≥ 6.00

Recorded result, COc1cc(-c2ccc3c(c2NC(=O)NS(=O)(=O)c2ccc(CN(C)C)nc2)CCC3)ccn1 [Example 176] , pIC50: ≥ 6.30

---

assayTarget: NLRP3 (Homo sapiens)
measurementNotes: Human whole blood IL1β release assay (LPS + nigericin, AlphaLisa IL-1β; HWB IC50)
Assay type: cell-based
Design: Human whole blood in Li-heparin tubes was obtained from healthy donors from a volunteer donor panel; from tissue; host or cells: human whole blood from healthy donors
assayContext: IL-1β release
pIC50: −log10 of the molar value. Where a name gives a salt, the structure may show the parent alone.
valueKind: pIC50

Here is how some molecules turned out for pIC50.
COc1cc(-c2ccc3c(c2NC(=O)NS(=O)(=O)CCOC(C)C)CCC3)ccn1 [Example 174, sodium salt]: ≥ 6.00
COc1cc(-c2cc(F)cc(C(C)C)c2NC(=O)NS(=O)(=O)c2ccn(C(C)C)n2)ccn1 [Example 12, ammonium salt]: ≥ 6.00
COc1cc(-c2cc(F)cc(C(C)C)c2NC(=O)NS(=O)(=O)CC2CCN(C)C2)ccn1 (stereo not shown): ≥ 6.30
CC(C)n1ccc(S(=O)(=O)NC(=O)Nc2c(-c3cccnc3)ccc3c2CCCC3)n1: ≥ 5.30
COc1cc(-c2cc(F)cc(C3CCCC3)c2NC(=O)NS(=O)(=O)c2ccn(C(C)C)n2)ccn1: ≥ 5.30
CN1CCC2CN(S(=O)(=O)NC(=O)Nc3c(-c4ccnc(C#N)c4)ccc4c3CCC4)CC21 (stereo not shown): ≥ 6.30

Alright, here's another molecule for you.
// assay NLRP3 (Homo sapiens), entry COc1cc(-c2ccc3c(c2NC(=O)NS(=O)(=O)CCOC(C)C)CCO3)ccn1 [Example 175, sodium salt] , pIC50 value = ≥ 6.30

---

assayTarget: NLRP3 (Homo sapiens, UniProt Q96P20)
measurementNotes: Human whole blood IL1β release assay (LPS + nigericin, AlphaLisa IL-1β; HWB IC50)
Assay type: cell-based
Parameters: Human whole blood in Li-heparin tubes was obtained from healthy donors from a volunteer donor panel; from tissue; host or cells: human whole blood from healthy donors
assayContext: IL-1β release
pIC50: −log10 of the molar value. Counter-ions that a name gives are not always drawn.
valueKind: pIC50

CC(C)c1cc(F)cc(-c2ccnc(C#N)c2)c1NC(=O)NS(=O)(=O)c1cn(C(C)C)cn1 [Example 54]: ≥ 6.30
CC(C)c1cc(F)cc(-c2ccnc(C#N)c2)c1NC(=O)NS(=O)(=O)c1cnc(N(C)C)cn1 [Example 106]: ≥ 5.30

COc1cc(-c2ccc3c(c2NC(=O)NS(=O)(=O)c2cnc(=O)n(C(C)C)c2)CCC3)ccn1 [Example 95, sodium salt] has a reported pIC50 of ≥ 6.00

pIC50 reported for this compound COCc1cc(-c2ccc3c(c2NC(=O)NS(=O)(=O)c2ccn(C(C)C)n2)CCC3)ccn1 [Example 296, sodium salt] : ≥ 6.30

Entry [2H]C([2H])([2H])Oc1cc(-c2ccc3c(c2NC(=O)NS(=O)(=O)c2ccc(CN(C)C)cc2)CCC3)ccn1 [Example 310] ; pIC50 = ≥ 6.30

---

assayTarget: UniProtKB Q96P20
measurementNotes: Human whole blood IL1β release assay (LPS + nigericin, AlphaLisa IL-1β; HWB IC50)
Assay type: cell-based
Set-up: Human whole blood in Li-heparin tubes was obtained from healthy donors from a volunteer donor panel; from tissue; host or cells: human whole blood from healthy donors
assayContext: IL-1β release
pIC50: −log10 of the molar value. Counter-ions that a name gives are not always drawn.
Known pIC50 of a selection of compounds

According to the records, this compound COCC(C)Oc1cc(-c2ccc3c(c2NC(=O)NS(=O)(=O)c2ccn(C(C)C)n2)CCC3)ccn1 (centres unmarked) [Example 289, sodium salt] displays pIC50 of ≥ 5.30

According to the records, this compound CC(C)n1ccc(S(=O)(=O)NC(=O)Nc2c(-c3ccnc(CO)c3)ccc3c2CCC3)n1 displays pIC50 of ≥ 6.00

Form field pIC50, entry CC(C)Oc1cc(-c2cc(F)cc(C(C)C)c2NC(=O)NS(=O)(=O)c2ccn(C(C)C)n2)ccn1 : ≥ 5.30

Per the record, N#Cc1cc(-c2ccc3c(c2NC(=O)NS(=O)(=O)c2ccn(C4CCC4)n2)CCC3)ccn1 has pIC50 of ≥ 6.30

Lab note: CC(C)c1cc(F)cc(-c2ccnc(C#N)c2)c1NC(=O)NS(=O)(=O)c1cc(CN(C)C)n(C)n1 gave pIC50 of ≥ 6.30

pIC50 reading for COc1cc(-c2ccc3c(c2NC(=O)NS(=O)(=O)c2ccn(C(C)(C)CN4CC(C)C4)n2)CCC3)ccn1 : ≥ 6.30

Field pIC50 (entry COc1cc(-c2ccc3c(c2NC(=O)NS(=O)(=O)c2nn(C(C)C)cc2F)CCC3)ccn1 ) reads ≥ 6.30

Just so you know, measured pIC50 for COc1cc(-c2ccc3c(c2NC(=O)NS(=O)(=O)N(C)CC2CCCN2C)CCC3)ccn1 (centres unmarked) came out at ≥ 6.30
